- condition-set: Escherichia coli (strain K12); pH 7.5; Thermal; Intensity; HEPES 20mM; transition: 2; whole UniProt chain shown
Listing: Tm of selected proteins

[
  {
    "protein": "5-amino-6-(5-phospho-D-ribitylamino)uracil phosphatase YbjI wild type, P75809 (protein) MSIKLIAVDMDGTFLSDQKTYNRERFMAQYQQMKAQGIRFVVASGNQYYQLISFFPEIANEIAFVAENGGWVVSEGKDVFNGELSKDAFATVVEHLLTRPEVEIIACGKNSAYTLKKYDDAMKTVAEMYYHRLEYVDNFDNLEDIFFKFGLNLSDELIPQVQKALHEAIGDIMVSVHTGNGSIDLIIPGVHKANGLRQLQKLWGIDDSEVVVFGDGGNDIEMLRQAGFSFAMENAGSAVVAAAKYRAGSNNREGVLDVIDKVLKHEAPFDQ",
    "Tm": "41.2 °C"
  },
  {
    "protein": "Ribosome-binding ATPase YchF wild type, P0ABU2 (protein) MGFKCGIVGLPNVGKSTLFNALTKAGIEAANFPFCTIEPNTGVVPMPDPRLDQLAEIVKPQRTLPTTMEFVDIAGLVKGASKGEGLGNQFLTNIRETEAIGHVVRCFENDNIIHVSGKVNPADDIEVINTELALADLDTCERAIHRVQKKAKGGDKDAKAELAVLEKCLPQLENAGMLRALDLSAEEKAAIRYLSFLTLKPTMYIANVNEDGFENNPYLDQVREIAAKEGSVVVPVCAAVEADIAELDDEERDEFMQELGLEEPGLNRVIRAGYKLLNLQTYFTAGVKEVRAWTIPVGATAPQAAGKIHTDFEKGFIRAQTISFEDFITYKGEQGAKEAGKMRAEGKDYIVKDGDVMNFLFNV",
    "Tm": "41.3 °C"
  },
  {
    "protein": "Glutathione S-transferase YfcF wild type, P77544 (protein) MSKPAITLWSDAHFFSPYVLSAWVALQEKGLSFHIKTIDLDSGEHLQPTWQGYGQTRRVPLLQIDDFELSESSAIAEYLEDRFAPPTWERIYPLDLENRARARQIQAWLRSDLMPIREERPTDVVFAGAKKAPLTAEGKASAEKLFAMAEHLLVLGQPNLFGEWCIADTDLALMINRLVLHGDEVPERLVDYATFQWQRASVQRFIALSAKQSG",
    "Tm": "41.6 °C"
  }
]
